Listing of entries alongside the reported % of steady-state BLI response relative to PGLVKSK(biotin).
# Measured On: T1, PGRVKSK(biotin) peptide (PGXVKSK(biotin), X = Arg)
# T1 construct: also called Arg at P3
# T1 peptide: PGRVKSK(Biotin)
# Method Notes: BLI, biotinylated peptide on streptavidin biosensor
No end group written: not given here. *: point of attachment. Biotin = O=C1N[C@H]2[C@H](CS[C@H]2CCCCC(=O)*)N1

In: // % of steady-state BLI response relative to PGLVKSK(biotin) lookup, key: GID4 A252V-S253T double mutant variant (residues 116-300), purified with N-terminal His-tag (designed binder, also called A252V-S253T mutant; not shown: N-terminal six-histidine tag and TEV protease recognition site from the pET21(+) construct) GVATSLLYSGSKFRGHQKSKGNSYDVEVVLQHVDTGNSYLCGYLKIKGLTEEYPTLTTFFEGEIISKKHPFLTRKWDADEDVDRKHWGKFLAFYQYAKSFNSDDFDYEELKNGDYVFMRWKEQFLVPDHTIKDISGVTFAGFYYICFQKSAASIEGYYYHRSSEWYQSLNLTHVPEHSAPIYEFR
Out: > 69%

In: Fill in the blank: the reported % of steady-state BLI response relative to PGLVKSK(biotin) of GID4 A252V variant (residues 116-300), purified with N-terminal His-tag (designed binder, not shown: N-terminal six-histidine tag and TEV protease recognition site from the pET21(+) construct) GVATSLLYSGSKFRGHQKSKGNSYDVEVVLQHVDTGNSYLCGYLKIKGLTEEYPTLTTFFEGEIISKKHPFLTRKWDADEDVDRKHWGKFLAFYQYAKSFNSDDFDYEELKNGDYVFMRWKEQFLVPDHTIKDISGVSFAGFYYICFQKSAASIEGYYYHRSSEWYQSLNLTHVPEHSAPIYEFR is ____.
Out: > 60%

In: // query % of steady-state BLI response relative to PGLVKSK(biotin) value for entry GID4 A252V-S253T-S283F triple mutant variant (residues 116-300), purified with N-terminal His-tag (designed binder, not shown: N-terminal six-histidine tag and TEV protease recognition site from the pET21(+) construct) GVATSLLYSGSKFRGHQKSKGNSYDVEVVLQHVDTGNSYLCGYLKIKGLTEEYPTLTTFFEGEIISKKHPFLTRKWDADEDVDRKHWGKFLAFYQYAKSFNSDDFDYEELKNGDYVFMRWKEQFLVPDHTIKDISGVTFAGFYYICFQKSAASIEGYYYHRSSEWYQFLNLTHVPEHSAPIYEFR
Out: > 69%

In: May I ask what % of steady-state BLI response relative to PGLVKSK(biotin) has been recorded for GID4 A252V-S283F double mutant variant (residues 116-300), purified with N-terminal His-tag (designed binder, also called A252V-S283F mutant; not shown: N-terminal six-histidine tag and TEV protease recognition site from the pET21(+) construct) GVATSLLYSGSKFRGHQKSKGNSYDVEVVLQHVDTGNSYLCGYLKIKGLTEEYPTLTTFFEGEIISKKHPFLTRKWDADEDVDRKHWGKFLAFYQYAKSFNSDDFDYEELKNGDYVFMRWKEQFLVPDHTIKDISGVSFAGFYYICFQKSAASIEGYYYHRSSEWYQFLNLTHVPEHSAPIYEFR ?
Out: > 69%
